T/C: recorded values
System: L1210 leukemia ip in BDF1 mice, survival T/C
Assay: NCI In Vivo Anticancer Drug Screen. Data for tumor model L1210 Leukemia (intraperitoneal) in B6D2F1 (BDF1) mice
Conditions: endpoint: mean survival time; dose: 150.0 mg/kg/injection; schedule: Q01DX001 (ip); vehicle: saline; higher = longer survival
Method: The antitumor activity of compounds was measured in mice bearing transplantable tumors. Survival or tumor size were measured and the results are expressed as the measurement made in the treated group (T) divided by the measurement made in the vehicle treated control group (C). The tumor model used in this assay is L1210 Leukemia (intraperitoneal) in B6D2F1 (BDF1) mice
Toxic doses and inconclusive results are not listed.

MOLECULE | RESULT
CCNCCCNCC | 93 % of control
CCOC(=O)C(=N\Nc1cccc(C)c1C)/C(C)=N\NC(N)=S | 97 % of control
CSc1ncnc2c1nnn2C1OC(CO)C(O)C1O (centres undefined) | 110 % of control

Please turn your attention to the following entry.
Q. Report T/C on L1210 leukemia ip in BDF1 mice, survival T/C for this entry: COc1ccc2[nH]c3c(C)c4ccncc4c(C)c3c2c1
A. 118 % of control

----------
T/C: recorded values
tested on: L1210 leukemia ip in BDF1 mice, survival T/C; test: NCI In Vivo Anticancer Drug Screen. Data for tumor model L1210 Leukemia (intraperitoneal) in B6D2F1 (BDF1) mice; settings: endpoint: mean survival time; dose: 200.0 mg/kg/injection; schedule: Q01DX001 (ip); vehicle: other; higher = longer survival
Toxic doses and inconclusive results are not listed.

Answered cases to consult:
COMPOUND | T/C
Cc1cc(C(=O)NN)c(C#N)c(=O)[nH]1 | 95 % of control
CCCNC(=O)Oc1ccc(C2CCCCC2)cc1 | 100 % of control
O=C(NCS(=O)(=O)O)OCc1ccccc1 | 104 % of control
O=Nc1cc(-c2nccc3ccccc23)[nH]c1-c1ccccc1 | 96 % of control
Cc1ccc(NC(=S)Nc2ccccc2)c(C)c1 | 94 % of control
CN(C)c1ccc(C=Nc2ccccc2)cc1 | 102 % of control

Q. Quickly give me recorded T/C for COc1nc(=O)n(C2CCCO2)cc1Br (stereo not given)
A. 96 % of control

Q. Quickly give me recorded T/C for O=S(=O)(Nc1ncccn1)c1ccc(N=NSC2=NC=NC3=NC=NC32)cc1 (stereo not given)
A. 124 % of control

Q. Quickly give me recorded T/C for N=C(N[N+](=O)[O-])N(CCC(=O)O)N=O
A. 101 % of control

Q. Quickly give me recorded T/C for O=C(CCCCC(=O)c1ccc(O)cc1O)c1ccc(O)cc1O
A. 95 % of control

----------
T/C: recorded values
system: L1210 leukemia ip in BDF1 mice, survival T/C; experiment: NCI In Vivo Anticancer Drug Screen. Data for tumor model L1210 Leukemia (intraperitoneal) in B6D2F1 (BDF1) mice; settings: endpoint: mean survival time; dose: 100.0 mg/kg/injection; schedule: Q04DX003 (ip); vehicle: saline; higher = longer survival
Toxic doses and inconclusive results are not listed.

MOLECULE | T/C
NCCc1nc(C(=O)O)cs1 | 103 % of control
C/C(CC(C)C)=N\NC(=O)Nc1ccc(Cl)c(Cl)c1 | 92 % of control
N#CSC1CSC(SC2=NC(SC#N)CS2)=N1 (configuration not stated) | 98 % of control
CN(C)/N=C/c1ccccn1 | 106 % of control
CC(C)C1(C(C)C)OCC(CO)O1 (configuration not stated) | 94 % of control

Q. Quickly give me recorded T/C for Cc1ccc(Cl)cc1NC(=O)N1CCN(c2ccccc2)CC1
A. 101 % of control

Q. Quickly give me recorded T/C for Cn1c(=O)c2c(ncn2CCO)n(C)c1=O
A. 104 % of control

----------
T/C: recorded values
tested on: L1210 leukemia ip in BDF1 mice, survival T/C; experiment: NCI In Vivo Anticancer Drug Screen. Data for tumor model L1210 Leukemia (intraperitoneal) in B6D2F1 (BDF1) mice; conditions: endpoint: mean survival time; dose: 100.0 mg/kg/injection; schedule: Q01DX009 (ip); vehicle: saline sonified; higher = longer survival
Toxic doses and inconclusive results are not listed.

COMPOUND | RESULT
CC12OC(=O)CC1CC(=O)O2 (centres undefined) | 109 % of control
C#CCOC(=O)c1ccc(C(=O)OCC#C)cc1 | 106 % of control
O=C1NC(=O)C2(CCCCCC2)N1 | 90 % of control

Please turn your attention to the following entry.
Q. Quickly give me recorded T/C for O=C(CCl)c1cccnc1C(=O)O
A. 89 % of control

----------
system: L1210 leukemia ip in BDF1 mice, survival T/C; assay: NCI In Vivo Anticancer Drug Screen. Data for tumor model L1210 Leukemia (intraperitoneal) in B6D2F1 (BDF1) mice; conditions: endpoint: mean survival time; dose: 75.0 mg/kg/injection; schedule: Q01DX001 (ip); vehicle: saline; higher = longer survival
Toxic doses and inconclusive results are not listed.
T/C: recorded values

Answered cases to consult:
COMPOUND | EXPERIMENTAL_SYSTEM | T/C
O=C1CC2C(=O)CC1C(C(=O)O)C2C(=O)O (stereo not drawn) | L1210 leukemia ip in BDF1 mice, survival T/C | 102 % of control
CN(C)CC1(c2ccccc2)CC[N+](C)(C)C1 (stereo not drawn) | L1210 leukemia ip in BDF1 mice, survival T/C | 89 % of control
ClCC[N+]12CC[N+](CCCl)(CC1)C2 | L1210 leukemia ip in BDF1 mice, survival T/C | 105 % of control
CC1=C(C#N)C2(CCN(C)CC2)C(C#N)=C(C)N1 | L1210 leukemia ip in BDF1 mice, survival T/C | 104 % of control
CCNCCCNCC | L1210 leukemia ip in BDF1 mice, survival T/C | 100 % of control

Q. Quickly give me recorded T/C for NC1CC=CCC1c1ccc2c(c1)OCO2 (stereo not drawn)
A. 100 % of control

Q. Quickly give me recorded T/C for CCOC(=O)C1=Cc2ccccc2OC1
A. 94 % of control

Q. Quickly give me recorded T/C for CCOC(=O)C(=N\Nc1cccc(C)c1C)/C(C)=N\NC(N)=S
A. 94 % of control

----------
tested on: L1210 leukemia ip in BDF1 mice, survival T/C; assay: NCI In Vivo Anticancer Drug Screen. Data for tumor model L1210 Leukemia (intraperitoneal) in B6D2F1 (BDF1) mice; details: endpoint: mean survival time; dose: 100.0 mg/kg/injection; schedule: Q01DX009 (ip); vehicle: saline with Tween-80; higher = longer survival
Toxic doses and inconclusive results are not listed.
MEASURED_PARAMETER: T/C

Answered cases to consult:
COMPOUND | T/C
CC(=O)Nc1ccc2c(c1)OCO2 | 101 % of control
COCCNC(=O)Nc1cccc2c1CCCC2 | 97 % of control
Nc1[nH]nc2nc(-c3ccc(Cl)cc3)cnc12 | 101 % of control
c1ccc2c(-c3nc4ccccc4[nH]3)cccc2c1 | 91 % of control
COc1ccc(/C=N/NC(=O)C[n+]2ccccc2)c(OC)c1 | 103 % of control

Q. Quickly give me recorded T/C for CNc1ccc(C(=O)c2ccccc2C(=O)O)cc1[N+](=O)[O-]
A. 92 % of control

Q. Quickly give me recorded T/C for O=c1[nH]c(-c2ccccc2)nc(-c2ccccc2)c1CCO
A. 92 % of control

Q. Quickly give me recorded T/C for CCCC(O)(CC)C1CCCC1C (configuration not stated)
A. 111 % of control

Q. Quickly give me recorded T/C for Cc1cc(-c2nnc(-c3ccc(O)c(C)c3)nn2)ccc1O
A. 94 % of control

Q. Quickly give me recorded T/C for Cc1cc([N+](=O)[O-])c2ccccc2c1N
A. 117 % of control

Q. Quickly give me recorded T/C for c1ccc(Sc2ccc3ccccc3c2)cc1
A. 103 % of control

Q. Quickly give me recorded T/C for O=CNCc1cnccn1
A. 93 % of control

Q. Quickly give me recorded T/C for NC(=S=O)c1ccccc1
A. 97 % of control

Q. Quickly give me recorded T/C for O=C(Nc1cccc(O)c1)Nc1cccc(Cl)c1Cl
A. 91 % of control

Q. Quickly give me recorded T/C for COC1CC(N=[N+]=[N-])C(OC(=O)c2ccccc2)C(C)O1 (configuration not stated)
A. 110 % of control

----------
test system: L1210 leukemia ip in BDF1 mice, survival T/C; assay: NCI In Vivo Anticancer Drug Screen. Data for tumor model L1210 Leukemia (intraperitoneal) in B6D2F1 (BDF1) mice; conditions: endpoint: mean survival time; dose: 400.0 mg/kg/injection; schedule: Q01DX009 (ip); vehicle: Klucel (hydroxypropylcellulose) (HPC); higher = longer survival
Toxic doses and inconclusive results are not listed.
MEASURED_PARAMETER: T/C

COMPOUND | EXPERIMENTAL_SYSTEM | T/C
O=C(N/N=C/C=C/c1ccccc1)c1ccccc1O | L1210 leukemia ip in BDF1 mice, survival T/C | 95 % of control
COc1ccc(Cl)cc1NC(=O)NC(Cc1ccccc1)c1ccccc1 (configuration not stated) | L1210 leukemia ip in BDF1 mice, survival T/C | 105 % of control
COc1cccc(NC(=S)N2CCCCC2)c1 | L1210 leukemia ip in BDF1 mice, survival T/C | 102 % of control

Q. Quickly give me recorded T/C for COc1ccc(NC(=O)Oc2ccc(-c3ccccc3)cc2Cl)c(OC)c1
A. 92 % of control
